# METHOD: Pharmacokinetics of steroidal alkaloids after single oral FTB dose in normal and DNBS-induced colitis rats
# Assay type: in vivo, Sprague–Dawley rats
# RECORDED CONDITIONS: DNBS-treated (colitis) rats; oral FTB 1 g/kg single dose; plasma; mean ± SD, n = 5
Task for the reader: assign each of the following compounds its reported AUClast.

Report AUClast for C[C@H]1CC[C@@H]2N(C1)C[C@H]1[C@@H]3C[C@H]4[C@@H](CC(=O)[C@H]5C[C@@H](O)CC[C@@]54C)[C@@H]3CC[C@@H]1[C@]2(C)O please.
888.8 ± 286.0 h∗ng/mL

Param item = C[C@H]1CC[C@@H]2N(C1)C[C@H]1[C@@H]3C[C@H]4[C@@H](CC(=O)[C@H]5C[C@@H](O)CC[C@@]54C)[C@@H]3CC[C@H]1[C@]2(C)O ; retrieve measured AUClast.
764.0 ± 285.5 h∗ng/mL

So what's the measured AUClast for this one? C[C@H]1CC[C@@H]2N(C1)C[C@H]1[C@@H]3C[C@H]4[C@@H](C[C@H](O)[C@H]5C[C@@H](O)CC[C@@]54C)[C@@H]3CC[C@@H]1[C@]2(C)O
1076.9 ± 444.1 h∗ng/mL

Name the recorded AUClast for CC1=C2C[C@H]3[C@@H](CC(=O)C4C[C@@H](O)CC[C@@]43C)[C@@H]2CC[C@]12OC1C[C@H](C)CN[C@H]1[C@H]2C (stereo partly shown) .
16,895.4 ± 5782.1 h∗ng/mL

====

# METHOD: Pharmacokinetics of steroidal alkaloids after single oral FTB dose in normal and DNBS-induced colitis rats
# Assay type: in vivo, Sprague–Dawley rats
# RECORDED CONDITIONS: male, Sprague-Dawley, rat, plasma, po, 1 g/kg, normal rats; oral FTB 1 g/kg single dose; mean ± SD, n = 5
OBSERVABLE: Tmax (min)
A number alone suffices; assume min.

Suppose we examine the compound C[C@H]1CC[C@@H]2N(C1)C[C@H]1[C@@H]3C[C@H]4[C@@H](CC(=O)[C@H]5C[C@@H](O)CC[C@@]54C)[C@@H]3CC[C@@H]1[C@]2(C)O ; what Tmax value has been reported?
60

Give the measured Tmax of C[C@H]1CC[C@@H]2N(C1)C[C@H]1[C@@H]3C[C@H]4[C@@H](CC(=O)[C@H]5C[C@@H](O)CC[C@@]54C)[C@@H]3CC[C@H]1[C@]2(C)O .
78

# input compound: C[C@H]1CC[C@@H]2N(C1)C[C@H]1[C@@H]3C[C@H]4[C@@H](C[C@H](O)[C@H]5C[C@@H](O)CC[C@@]54C)[C@@H]3CC[C@@H]1[C@]2(C)O ; wanted: its Tmax
42

Form field: reported Tmax of CC1=C2C[C@H]3[C@@H](CC(=O)C4C[C@@H](O)CC[C@@]43C)[C@@H]2CC[C@]12OC1C[C@H](C)CN[C@H]1[C@H]2C (stereo partly shown)
54

====

# METHOD: Pharmacokinetics of steroidal alkaloids after single oral FTB dose in normal and DNBS-induced colitis rats
# Type: in vivo, Sprague–Dawley rats
# RECORDED CONDITIONS: normal rats; oral FTB 1 g/kg single dose; plasma; mean ± SD, n = 5
Please go through the items and note down their AUMClast.
Supply the numeric figure in h∗h∗ng/mL, leaving out any unit text.

Please report the recorded AUMClast for C[C@H]1CC[C@@H]2N(C1)C[C@H]1[C@@H]3C[C@H]4[C@@H](C[C@H](O)[C@H]5C[C@@H](O)CC[C@@]54C)[C@@H]3CC[C@@H]1[C@]2(C)O .
4511.4

Which AUMClast value is on record for C[C@H]1CC[C@@H]2N(C1)C[C@H]1[C@@H]3C[C@H]4[C@@H](CC(=O)[C@H]5C[C@@H](O)CC[C@@]54C)[C@@H]3CC[C@H]1[C@]2(C)O ?
2675.8

Would you mind telling me what AUMClast value was observed for C[C@H]1CC[C@@H]2N(C1)C[C@H]1[C@@H]3C[C@H]4[C@@H](CC(=O)[C@H]5C[C@@H](O)CC[C@@]54C)[C@@H]3CC[C@@H]1[C@]2(C)O ?
5302.0

====

# METHOD: Pharmacokinetics of steroidal alkaloids after single oral FTB dose in normal and DNBS-induced colitis rats
# Format: in vivo, Sprague–Dawley rats
# RECORDED CONDITIONS: male, Sprague-Dawley, rat, plasma, po, 1 g/kg, normal rats; oral FTB 1 g/kg single dose; mean ± SD, n = 5
For each of the molecules below, state its Cmax.
Hi! Could you send only the number? It should be in ng/mL, unit omitted.

Field request: Cmax | item: C[C@H]1CC[C@@H]2N(C1)C[C@H]1[C@@H]3C[C@H]4[C@@H](C[C@H](O)[C@H]5C[C@@H](O)CC[C@@]54C)[C@@H]3CC[C@@H]1[C@]2(C)O [peimine]
356

What Cmax value was documented for this molecule, CC1=C2C[C@H]3[C@@H](CC(=O)C4C[C@@H](O)CC[C@@]43C)[C@@H]2CC[C@]12OC1C[C@H](C)CN[C@H]1[C@H]2C (stereo partly shown) [peimisine] ?
656

Fill in the blank: the reported Cmax of C[C@H]1CC[C@@H]2N(C1)C[C@H]1[C@@H]3C[C@H]4[C@@H](CC(=O)[C@H]5C[C@@H](O)CC[C@@]54C)[C@@H]3CC[C@@H]1[C@]2(C)O [peiminine] is ____.
228

Can you share its Cmax? I mean this molecule: C[C@H]1CC[C@@H]2N(C1)C[C@H]1[C@@H]3C[C@H]4[C@@H](CC(=O)[C@H]5C[C@@H](O)CC[C@@]54C)[C@@H]3CC[C@H]1[C@]2(C)O [sipeimine]
64.7

====

Assignment: determine reported half-life for the given compounds.
# METHOD: Pharmacokinetics of steroidal alkaloids after single oral FTB dose in normal and DNBS-induced colitis rats
# Type: in vivo, Sprague–Dawley rats
# RECORDED CONDITIONS: male, Sprague-Dawley, rat, plasma, po, 1 g/kg, normal rats; oral FTB 1 g/kg single dose; mean ± SD, n = 5
State just the number; it will be interpreted in h.

Need half-life, item C[C@H]1CC[C@@H]2N(C1)C[C@H]1[C@@H]3C[C@H]4[C@@H](CC(=O)[C@H]5C[C@@H](O)CC[C@@]54C)[C@@H]3CC[C@@H]1[C@]2(C)O
4.5

Given the compound C[C@H]1CC[C@@H]2N(C1)C[C@H]1[C@@H]3C[C@H]4[C@@H](C[C@H](O)[C@H]5C[C@@H](O)CC[C@@]54C)[C@@H]3CC[C@@H]1[C@]2(C)O , what is its reported half-life?
4

// lookup half-life for C[C@H]1CC[C@@H]2N(C1)C[C@H]1[C@@H]3C[C@H]4[C@@H](CC(=O)[C@H]5C[C@@H](O)CC[C@@]54C)[C@@H]3CC[C@H]1[C@]2(C)O
6.9

Entry CC1=C2C[C@H]3[C@@H](CC(=O)C4C[C@@H](O)CC[C@@]43C)[C@@H]2CC[C@]12OC1C[C@H](C)CN[C@H]1[C@H]2C (stereo partly shown) has what half-life?
3.9

====

# METHOD: Pharmacokinetics of steroidal alkaloids after single oral FTB dose in normal and DNBS-induced colitis rats
# Assay type: in vivo, Sprague–Dawley rats
# RECORDED CONDITIONS: male, Sprague-Dawley, rat, plasma, po, 1 g/kg, DNBS-treated (colitis) rats; oral FTB 1 g/kg single dose; mean ± SD, n = 5
OBSERVABLE: MRT last (h)
Number only, in h; omit the unit.

Consider the molecule shown here: C[C@H]1CC[C@@H]2N(C1)C[C@H]1[C@@H]3C[C@H]4[C@@H](C[C@H](O)[C@H]5C[C@@H](O)CC[C@@]54C)[C@@H]3CC[C@@H]1[C@]2(C)O What is its recorded MRT last?
2.7

Tell me the measured MRT last of CC1=C2C[C@H]3[C@@H](CC(=O)C4C[C@@H](O)CC[C@@]43C)[C@@H]2CC[C@]12OC1C[C@H](C)CN[C@H]1[C@H]2C (stereo partly shown) , please.
7.3

I would be grateful if you could share the reported MRT last for C[C@H]1CC[C@@H]2N(C1)C[C@H]1[C@@H]3C[C@H]4[C@@H](CC(=O)[C@H]5C[C@@H](O)CC[C@@]54C)[C@@H]3CC[C@@H]1[C@]2(C)O .
3.6

Given the entry C[C@H]1CC[C@@H]2N(C1)C[C@H]1[C@@H]3C[C@H]4[C@@H](CC(=O)[C@H]5C[C@@H](O)CC[C@@]54C)[C@@H]3CC[C@H]1[C@]2(C)O , report its measured MRT last.
4.7

====

Please respond with reported Cmax for every item in the list.
# METHOD: Pharmacokinetics of steroidal alkaloids after single oral FTB dose in normal and DNBS-induced colitis rats
# Assay type: in vivo, Sprague–Dawley rats
# RECORDED CONDITIONS: male, Sprague-Dawley, rat, plasma, po, 1 g/kg, DNBS-treated (colitis) rats; oral FTB 1 g/kg single dose; mean ± SD, n = 5
Reply numerically in ng/mL, unit not repeated.

What Cmax value was documented for this compound, C[C@H]1CC[C@@H]2N(C1)C[C@H]1[C@@H]3C[C@H]4[C@@H](C[C@H](O)[C@H]5C[C@@H](O)CC[C@@]54C)[C@@H]3CC[C@@H]1[C@]2(C)O [peimine] ?
351

For the compound C[C@H]1CC[C@@H]2N(C1)C[C@H]1[C@@H]3C[C@H]4[C@@H](CC(=O)[C@H]5C[C@@H](O)CC[C@@]54C)[C@@H]3CC[C@@H]1[C@]2(C)O [peiminine] , what Cmax is on record?
209

Which Cmax is listed for CC1=C2C[C@H]3[C@@H](CC(=O)C4C[C@@H](O)CC[C@@]43C)[C@@H]2CC[C@]12OC1C[C@H](C)CN[C@H]1[C@H]2C (stereo partly shown) [peimisine] ?
2330

// Cmax lookup, key: C[C@H]1CC[C@@H]2N(C1)C[C@H]1[C@@H]3C[C@H]4[C@@H](CC(=O)[C@H]5C[C@@H](O)CC[C@@]54C)[C@@H]3CC[C@H]1[C@]2(C)O [sipeimine]
162
